Source: paper PMC5540273

// reported %Inh for each item listed
Test system: MEK5;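 also: KINOMEscan kinase panel screen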
Construct: gene MAP2K5
Conditions: concentration: 1 μM, replicates: in singlicate; n = 1
recorded_endpoint: %Inh (%)

compound	recorded_endpoint	unit_of_measure	experimental_value
COc1ccc(-c2cc3c(C)nc(N)nc3n([C@H]3CC[C@H](OCCO)CC3)c2=O)cn1	%Inh	%	0
Fc1cccc(CSc2nnc(-c3ccc4c(c3)CCO4)o2)c1	%Inh	%	14
Cc1nc(N(C)[C@H]2CN(C(=O)CC#N)CC[C@H]2C)c2cc[nH]c2n1	%Inh	%	0
COc1cc2ncn(-c3cc(OCc4ccncc4Br)c(C(N)=O)s3)c2cc1OC	%Inh	%	98.8
Nc1nccc2scc(-c3ccc4c(c3)CCN4C(=O)Cc3ccccc3)c12	%Inh	%	93.2
Cn1c(=O)c(F)c(Nc2ccc(I)cc2F)c2c(=O)n(OC[C@H](O)CO)cnc21	%Inh	%	0
Cc1nn2c(=O)cc(N3CCOCC3)nc2n1Cc1cccc(Cl)c1Cl	%Inh	%	0
CCc1nc(-c2cccc(C)c2)c(-c2ccncc2)s1	%Inh	%	34
COC(=O)c1c(-c2ccccc2)c2cc(Br)ccc2c(=O)n1Cc1ccc(S(C)(=O)=O)cc1	%Inh	%	29
CCC(=O)c1c(-c2ccccc2)c2cc(Cl)ccc2c(=O)n1Cc1cc(S(C)(=O)=O)n(CC(F)F)n1	%Inh	%	0
CCCNC(=O)Nc1ccc(Oc2ncnc3ccn(C)c23)cc1	%Inh	%	61
CN(C)c1cc(-c2ccc3c(N)n[nH]c3c2)nc(N)n1	%Inh	%	13
COc1ccc(Nc2nccc(N3CCC(NS(=O)(=O)c4ccc(NC(C)=O)cc4)C3)n2)cc1 (stereo not shown)	%Inh	%	36
